List of VFA concentration, average (μ) values.
- Tested on: "in vitro" ruminal fluid cultures
- testProtocol: Volatile fatty acid concentration and molar proportions in "in vitro" ruminal fluid cultures
- Assay type: cell-based, calves
- experimentalSetup: average over incubation times
Record the value in mmol/L, omitting the unit from your answer.

C[C@@H]1O[C@@H](OC[C@H]2O[C@@H](Oc3cc(O)c4c(c3)O[C@H](c3ccc(O)cc3)CC4=O)[C@H](O)[C@@H](O)[C@@H]2O)[C@H](O)[C@H](O)[C@H]1O
34.18
COc1ccc([C@@H]2CC(=O)c3c(O)cc(O[C@@H]4O[C@H](CO)[C@@H](O)[C@H](O)[C@H]4O[C@@H]4O[C@@H](C)[C@H](O)[C@@H](O)[C@H]4O)cc3O2)cc1
34.21
C[C@@H]1O[C@@H](O[C@H]2[C@H](Oc3cc(O)c4c(c3)O[C@H](c3ccc(O)cc3)CC4=O)O[C@H](CO)[C@@H](O)[C@@H]2O)[C@H](O)[C@H](O)[C@H]1O
33.35
COc1ccc([C@@H]2CC(=O)c3c(O)cc(O[C@@H]4O[C@H](CO)[C@@H](O)[C@H](O)[C@H]4O[C@@H]4O[C@@H](C)[C@H](O)[C@@H](O)[C@H]4O)cc3O2)cc1O
34.60
C[C@@H]1O[C@@H](O[C@H]2[C@H](Oc3cc(O)c4c(c3)O[C@H](c3ccc(O)c(O)c3)CC4=O)O[C@H](CO)[C@@H](O)[C@@H]2O)[C@H](O)[C@H](O)[C@H]1O
35.76

Lab note: next molecule to report on.
Query :: Checklist item: VFA concentration, average (μ) tested on "in vitro" ruminal fluid cultures, entry `COc1ccc([C@@H]2CC(=O)c3c(O)cc(O[C@@H]4O[C@H](CO[C@@H]5O[C@@H](C)[C@H](O)[C@@H](O)[C@H]5O)[C@@H](O)[C@H](O)[C@H]4O)cc3O2)cc1O` , value?
Result :: 35.25
